tested on: Rattus norvegicus; assay: Anti-inflammatory activity against carrageenan-induced paw edema in albino rat assessed as inhibition of paw edema at 100 mg/kg, po pretreated for 1 hr followed by carrageenan challenge measured after 1 to 7 hrs relative to control; assay type: functional

smilesInput | readoutUnit | inhibition in vivo at 100 mg/kg
CN1CCN(C(=O)CNc2nc(-c3ccccc3)c(-c3ccccc3)s2)CC1 | % | 54.3
COc1ccc(-c2ncn(CC(=O)N3CCOCC3)c2-c2ccc(OC)cc2)cc1 | % | 60.8
O=C(Cn1cnc(-c2ccccc2)c1-c1ccccc1)N1CCOCC1 | % | 54.5
COc1ccc(-c2nc(NCC(=O)N3CCN(C)CC3)sc2-c2ccc(OC)cc2)cc1 | % | 61.9
O=C(O)CNc1nc(-c2ccccc2)c(-c2ccccc2)s1 | % | 54
O=C(O)Cn1cnc(-c2ccccc2)c1-c1ccccc1 | % | 53.8

src = ChEMBL document CHEMBL3872255
